biological target: PRMT5/MEP50 complex (Homo sapiens (Human), UniProt O14744); assay: PRMT5:MEP50 FlashPlate Assay (histone H4 peptide substrate, plus and minus MTA); assay type: biochemical; details: in the absence of MTA, read-out: IC50
Sequence (O14744 2-637): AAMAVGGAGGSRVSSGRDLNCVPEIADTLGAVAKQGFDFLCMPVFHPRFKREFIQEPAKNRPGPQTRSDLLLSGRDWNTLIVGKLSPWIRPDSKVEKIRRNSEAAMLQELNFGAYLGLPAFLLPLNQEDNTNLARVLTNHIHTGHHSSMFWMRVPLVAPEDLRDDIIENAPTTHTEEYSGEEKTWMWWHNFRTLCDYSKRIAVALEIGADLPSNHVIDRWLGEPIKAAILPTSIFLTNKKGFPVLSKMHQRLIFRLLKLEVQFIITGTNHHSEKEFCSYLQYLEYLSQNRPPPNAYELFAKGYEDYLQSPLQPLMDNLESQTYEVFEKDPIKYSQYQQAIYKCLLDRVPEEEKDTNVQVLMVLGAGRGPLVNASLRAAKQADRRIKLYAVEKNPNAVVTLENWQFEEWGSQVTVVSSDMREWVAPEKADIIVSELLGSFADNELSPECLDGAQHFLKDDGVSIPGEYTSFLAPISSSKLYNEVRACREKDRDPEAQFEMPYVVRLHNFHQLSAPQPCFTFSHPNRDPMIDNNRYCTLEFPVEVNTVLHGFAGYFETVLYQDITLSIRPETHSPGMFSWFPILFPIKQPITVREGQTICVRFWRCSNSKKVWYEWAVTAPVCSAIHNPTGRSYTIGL
Sequence (Q9BQA1 2-342 partner): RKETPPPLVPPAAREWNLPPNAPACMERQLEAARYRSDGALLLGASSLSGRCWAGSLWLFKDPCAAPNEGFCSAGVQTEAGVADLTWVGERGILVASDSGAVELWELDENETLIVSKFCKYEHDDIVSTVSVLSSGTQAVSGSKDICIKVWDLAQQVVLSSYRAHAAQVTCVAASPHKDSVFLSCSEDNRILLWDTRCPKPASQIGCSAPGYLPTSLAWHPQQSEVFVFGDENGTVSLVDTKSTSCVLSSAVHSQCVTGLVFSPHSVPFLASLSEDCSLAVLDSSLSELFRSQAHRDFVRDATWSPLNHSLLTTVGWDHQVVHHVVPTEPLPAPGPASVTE
Readout type: IC50 (nM)

Below, each entry is followed by its recorded IC50 result.
INSERT INTO measurements (compound, target_under_test, u, observed_result) VALUES
  ('COc1ccc(-c2cncc(-c3ccc4c(=O)[nH]nc(CN)c4c3)c2)c(C#N)c1 [Example 8-3]', 'PRMT5/MEP50 complex (Homo sapiens (Human), UniProt O14744)', 'nM', 237),
  ('Cn1ncc(-c2ccc3c(=O)[nH]nc(CN)c3c2)c1C#N [Example 4-31]', 'PRMT5/MEP50 complex (Homo sapiens (Human), UniProt O14744)', 'nM', 7630),
  ('CC(C)n1cc(-c2ccc3c(=O)[nH]nc(CN)c3c2)cn1 [Example 3-17]', 'PRMT5/MEP50 complex (Homo sapiens (Human), UniProt O14744)', 'nM', 15100),
  ('NCc1n[nH]c(=O)c2ccc(-c3cncc(OC(F)(F)F)c3)cc12 [Example 4-9]', 'PRMT5/MEP50 complex (Homo sapiens (Human), UniProt O14744)', 'nM', 16000),
  ('Cn1ncc(-c2ccc3c(=O)[nH]nc(CN)c3c2)c1-c1ccc(Cl)cc1 [Example 4-96]', 'PRMT5/MEP50 complex (Homo sapiens (Human), UniProt O14744)', 'nM', 116);

[I] NCc1n[nH]c(=O)c2ccc(-c3cnn4c3CN(C(=O)C3CCCC3)CC4)cc12 [Example 4-87]
[II] NCc1n[nH]c(=O)c2ccc(-c3cncc(Oc4ccc(F)cc4)c3)cc12 [Example 7-3]
[III] Cc1ccccc1Oc1cncc(-c2ccc3c(=O)[nH]nc(CN)c3c2)c1 [Example 4-72]
Order these by IC50, descending, and give the full ranking. Put the labels in the requested order and write them down.
I, II, III

###

target: PRMT5/MEP50 complex (Homo sapiens (Human)); assay: PRMT5:MEP50 HotSpot Assay (full-length histone H2A substrate, plus and minus MTA); type: biochemical; conditions: IC50 + 2 μM MTA, in the presence of 2 μM MTA
pIC50: −log10 of the molar value.
Readout type: pIC50

INSERT INTO measurements (compound, readout_type, observed_result) VALUES
  ('CC(N)c1n[nH]c(=O)c2ccc(-c3cnn(C)c3-c3cccc(Cl)c3C#N)cc12 (single isomer, unassigned) [Example 9-3]', 'pIC50', 5.90),
  ('Cn1ncc(-c2ccc3c(=O)[nH]nc(CN)c3c2)c1-c1c(Cl)cccc1Cl', 'pIC50', 6.34),
  ('Cn1ncc(-c2ccc3c(=O)[nH]nc(CN)c3c2)c1-c1cc(Cl)cc(Cl)c1', 'pIC50', 6.10);

[a] NCc1n[nH]c(=O)c2ccc(-c3cncc(Oc4ccccc4Cl)c3)cc12
[b] CN(c1ccccc1)c1cncc(-c2ccc3c(=O)[nH]nc(CN)c3c2)c1
[c] Cn1ncc(-c2ccc3c(=O)[nH]nc(CN)c3c2)c1-c1cc(C2CCOC2)ccc1C#N (centres unmarked)
[d] Cn1ncc(-c2ccc3c(=O)[nH]nc(CN)c3c2)c1-c1ccc(-c2cnsc2)cc1C#N
[e] COc1ccc2ncc(-c3ccc4c(=O)[nH]nc(CN)c4c3)n2c1
Hi! Can you put these in order of pIC50, lowest number first? Put the labels in the requested order and write them down.
e, c, a, b, d

Cited source: patent US11479551B2
